Target: T1, human PRLR ECD-Fc fusion protein (human, UniProt P16471 25-233)
T1 construct: not shown: Fc region (captured by goat anti-human Fc)
T1 sequence: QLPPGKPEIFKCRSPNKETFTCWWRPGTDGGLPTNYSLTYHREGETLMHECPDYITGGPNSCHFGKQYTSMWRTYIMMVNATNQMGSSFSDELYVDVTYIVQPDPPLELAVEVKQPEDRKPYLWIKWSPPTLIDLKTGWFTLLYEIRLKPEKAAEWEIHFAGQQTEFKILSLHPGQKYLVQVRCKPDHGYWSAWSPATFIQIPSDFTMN
Experiment: ELISA on ECD
measured metric: EC50 (nM)
Just the number in nM, nothing appended.

Example binders with recorded EC50:
• Ab16 (antibody, human IgG1, kappa, V domains shown, humanized from Ab6; G1; also called Ab1 HC.1 and Ab1 LC.2) VH: EVQLVQSGAEVKKPGSSVKVSCKASGYTFTTYWMHWVRQAPGQGLEWMGEIDPSDSYSNYNQKFKDRVTITADKSTSTAYMELSSLRSEDTAVYYCARNGGLGPAWFSYWGQGTLVTVSS VL: EIVMTQSPATLSVSPGERATLSCKASQYVGTAVAWYQQKPGQAPRLLIYSASNRYTGIPARFSGSGSGTEFTLTISSLQSEDFAVYYCQQYSSYPWTFGGGTKVEIKR = 0.0641
• Ab30 (antibody, human IgG1, kappa, V domains shown, humanized from Ab5; G1; also called Ab2 HC.1a and Ab2 LC.1a) VH: EVQLVQSGAEVKKPGSSVKVSCKASGYTFTSFWMHWVRQAPGQGLEWIGVIDPSDTYTNYNQKFKGRATLTVDESSSTAYMELSSLRSEDTAVYYCARGDYSNWFTYWGQGTLVTVSS VL: DVVMTQTPLSLSVTPGQPASISCRSSQRLVHSNGNTYLHWYLQKPGQSPQLLIYKVSNRFSGVPDRFSGSGSGTDFTLKISRVEAEDVGVYFCSQSTHVPWTFGGGTKVEIKR = 0.221
• Ab15 (antibody, human IgG1, kappa, V domains shown, humanized from Ab6; G1; also called Ab1 HC.1 and Ab1 LC.1a) VH: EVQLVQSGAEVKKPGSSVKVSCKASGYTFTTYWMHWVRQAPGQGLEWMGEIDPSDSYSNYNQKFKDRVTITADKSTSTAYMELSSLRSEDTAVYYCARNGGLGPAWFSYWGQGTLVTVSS VL: DIQMTQSPSSVSASVGDRVTITCKASQYVGTAVAWYQQKPGKSPKLLIYSASNRYTGVPSRFSDSGSGTDFTLTISSLQPEDFATYFCQQYSSYPWTFGGGTKVEIKR = 0.0781

# query: EC50 of entry chAb7 (antibody, human IgG1, kappa, V domains shown, chimeric, murine variable and human G1/kappa constant regions) VH: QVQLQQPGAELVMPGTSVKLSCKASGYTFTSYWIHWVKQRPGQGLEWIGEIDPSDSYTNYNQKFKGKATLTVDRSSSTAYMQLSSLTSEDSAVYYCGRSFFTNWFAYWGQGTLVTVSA VL: DVVMTQTPLSLPVSLGDQASISCRSSQSLVHSNGNTYLHWYLQKPGQSPKLLIYKVSNRFSGVPDRFSGSGSGTDFTLKINRVEAEDLGVYFCSQSTHVPFTFGSGTKLEIKT
0.151

# query: EC50 of entry Ab21 (antibody, human IgG1, kappa, V domains shown, humanized from Ab6; G1; also called Ab1 HC.1a and Ab1 LC.2a) VH: EVQLVQSGAEVKKPGSSVKVSCKASGYTFTTYWMHWVRQAPGQGLEWIGEIDPSDSYSNYNQKFKDRATLTVDKSTSTAYMELSSLRSEDTAVYYCARNGGLGPAWFSYWGQGTLVTVSS VL: EIVMTQSPATLSVSPGERATLSCKASQYVGTAVAWYQQKPGQSPRLLIYSASNRYTGVPARFSDSGSGTEFTLTISSLQSEDFAVYFCQQYSSYPWTFGGGTKVEIKR
0.0728

The measured values listed here are drawn from patent US20170022281A1.
